Molecular target: human alpha 1a adrenergic receptor (Homo sapiens)
Sequence (P35348 1-466): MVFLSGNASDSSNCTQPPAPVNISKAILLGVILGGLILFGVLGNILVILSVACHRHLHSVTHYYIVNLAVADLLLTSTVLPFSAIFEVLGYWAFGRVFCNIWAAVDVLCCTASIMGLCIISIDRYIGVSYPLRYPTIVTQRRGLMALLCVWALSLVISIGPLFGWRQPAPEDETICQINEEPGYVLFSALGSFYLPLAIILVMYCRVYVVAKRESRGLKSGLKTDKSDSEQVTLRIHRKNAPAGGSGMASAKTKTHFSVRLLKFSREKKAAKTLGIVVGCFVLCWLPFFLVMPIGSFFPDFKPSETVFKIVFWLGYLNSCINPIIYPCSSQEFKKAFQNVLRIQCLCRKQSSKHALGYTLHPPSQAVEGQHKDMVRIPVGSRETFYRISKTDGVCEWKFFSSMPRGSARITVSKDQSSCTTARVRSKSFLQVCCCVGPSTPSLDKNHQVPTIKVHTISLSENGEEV
metric name: pKi
Quick note: pKi values are minus log10 of concentrations in mol/L.

Query: Tell us which pKi value is on record for CC1=C(C(=O)NCCCN2CCC(C#N)(c3ccccn3)CC2)[C@@H](c2ccc(F)c(F)c2)CC(=O)N1C [Example 17]
Response: 6.59
